B1: tRNA (parent)
chain: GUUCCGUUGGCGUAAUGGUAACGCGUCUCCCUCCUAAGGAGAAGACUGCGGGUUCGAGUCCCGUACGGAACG

- Variants of: B1
- test-details: yeast fitness relative to wild type (ratio to wild type); higher = fitter; tRNA-Arg(CCU), competitive growth, 37 C, YPD
This sample holds only a part of the variants without activity.
readout: yeast fitness

Consider the reported yeast fitness for these variants:
variant-name	yeast fitness
C5A U16A C22G C30A	≤ 0.5
C11A A43U U64C	≤ 0.5
G6C C22A C33G G48C	≤ 0.5
A15G A36U C55U A65U	≤ 0.5
C11U G12A C31U U53C A65C	≤ 0.5

Query block: Quick one: yeast fitness for U26A C29G A43G A45U ?
Result block: ≤ 0.5

Query block: Any idea what its yeast fitness is? The variant is C30U G44A G56A
Result block: ≤ 0.5

Query block: State the recorded yeast fitness for this entry: G58C C60U C66G
Result block: ≤ 0.5

Query block: Consider the variant shown here: U8A U26C A43U C55U What is its recorded yeast fitness?
Result block: ≤ 0.5

Query block: // lookup yeast fitness for C5G U13C A21C A70C
Result block: ≤ 0.5

Query block: Consider the variant A14U G18C C29U A37U and give its measured yeast fitness.
Result block: ≤ 0.5

Query block: Value lookup for yeast fitness; key = G12C A20U C22G G50A
Result block: ≤ 0.5
